tested on: SF-539; assay: NCI tumour cell line growth inhibition, 48 h
Active and inactive are the calls of the source. Rule as the data show it: active = GI50 up to about 1.1 µM and inactive = higher. Non-standard residues stand in square brackets, D forms with d. Residues, ends and D or L forms follow the SMILES beside them. ΔPro = O=C(O)[CH]1C=CCN1
Listed compounds paired with reported GI50

[
  {
    "compound": "CN1CCC23c4ccccc4NC1C21CCN(C)C3Nc2ccccc21",
    "GI50": "> 355 µM (inactive)"
  },
  {
    "compound": "CCCCOc1ccc(S(=O)(=O)/N=C(\\NN)Nc2ccc(Cl)cc2)cc1",
    "GI50": "17.7 µM (inactive)"
  },
  {
    "compound": "NC1=CN2c3ccccc3N(CC(=O)O)C2C=C1 (centres undefined)",
    "GI50": "> 100 µM (inactive)"
  },
  {
    "compound": "CCOC(=O)C(Cc1cccn1C(=O)OC(C)(C)C)[N+](=O)[O-] (centres undefined)",
    "GI50": "22.1 µM (inactive)"
  },
  {
    "compound": "O=C(COC(c1ccc(F)cc1)c1ccc(F)cc1)N1CCN(CCCc2ccccc2)CC1",
    "GI50": "5.2 µM (inactive)"
  },
  {
    "compound": "Cc1nc2ccccc2n1Cc1ccc(NC(=S)NC2CCCCC2)cc1",
    "GI50": "> 72.3 µM (inactive)"
  },
  {
    "compound": "CCc1c[n+]([O-])c(C)cc1[N+](=O)[O-]",
    "GI50": "> 100 µM (inactive)"
  },
  {
    "compound": "O=Cc1c2c(cc3c1CC1(C3)Cc3cc4c(c(C=O)c3C1)CCCC4)CCCC2",
    "GI50": "> 31.6 µM (inactive)"
  },
  {
    "compound": "CCCCCCCCCCCCCC1=C(O)C(=O)C(CC2=C(O)C(=O)C(CCCCCCCCCCCCC)=C(O)C2=O)=C(O)C1=O",
    "GI50": "> 100 µM (inactive)"
  },
  {
    "compound": "O=C1CC2C=CC(O)C(C1)C2 (centres undefined)",
    "GI50": "> 100 µM (inactive)"
  },
  {
    "compound": "OC1(c2ccc3ccccc3c2)c2ccc3ccccc3c2C2=NCCN21 (centres undefined)",
    "GI50": "19.5 µM (inactive)"
  },
  {
    "compound": "O=C(O)C1C=CCN1C(=O)C1C=CCN1C(=O)C1C=CCN1 (centres undefined) (H-[ΔPro]-[ΔPro]-[ΔPro]-OH; configuration not given here)",
    "GI50": "> 100 µM (inactive)"
  },
  {
    "compound": "O=C1NC(=S)NC(=O)C1=CC1CC1",
    "GI50": "> 100 µM (inactive)"
  },
  {
    "compound": "NC1CC(=O)c2sccc21 (centres undefined)",
    "GI50": "> 100 µM (inactive)"
  },
  {
    "compound": "O=C1C(Cl)=C(Cl)C(=O)C(CCNc2nccs2)=C1Cl",
    "GI50": "33.7 µM (inactive)"
  },
  {
    "compound": "CC(=O)c1cc2ccccc2oc1=O [3-ACETYLCOUMARIN]",
    "GI50": "> 100 µM (inactive)"
  },
  {
    "compound": "COCC(=O)OC1CCn2c1nc1c2C(=O)C(C)=C(NC(C)=O)C1=N (centres undefined)",
    "GI50": "2.07 µM (inactive)"
  },
  {
    "compound": "Nc1nc[n+](Cc2ccccc2)c2ncn(Cc3ccccc3)c12",
    "GI50": "> 100 µM (inactive)"
  },
  {
    "compound": "C=CCN(C(=O)CNC(=O)C(F)(F)F)c1cc(OCc2ccccc2)c2c(c1)c(C)cn2S(=O)(=O)c1ccccc1",
    "GI50": "> 100 µM (inactive)"
  },
  {
    "compound": "Nc1ccn([C@H]2CO[C@@H](CO)O2)c(=O)n1",
    "GI50": "4.46 µM (inactive)"
  },
  {
    "compound": "CO[C@@H]1C=C[C@@]23c4cc5c(cc4C(=O)O[C@H]2CN(C)[C@H]3C1)OCO5",
    "GI50": "> 100 µM (inactive)"
  },
  {
    "compound": "C(#C[C@@]12CCC[C@@H]1NCO2)c1ccc2c(c1)OCO2",
    "GI50": "29.3 µM (inactive)"
  },
  {
    "compound": "N=C1SCCS1",
    "GI50": "> 100 µM (inactive)"
  },
  {
    "compound": "CC1(C)COC(C23C4C5C2C2C3C4C52I)=N1 (centres undefined)",
    "GI50": "> 100 µM (inactive)"
  }
]
